Conditions: in dichloromethane, 278.15 K
recorded.endpoint: solubility (mole fraction)
No unit in the answer, please; the number alone is enough.

Q) // fetch solubility (mole fraction) given entry `CN1COCN(Cc2cnc(Cl)s2)C1=N[N+](=O)[O-]`
A) 0.0126

###

Conditions: in acetone, 308.15 K
recorded.endpoint: solubility (mole fraction)
No unit in the answer, please; the number alone is enough.

Q) // fetch solubility (mole fraction) given entry `CN1COCN(Cc2cnc(Cl)s2)C1=N[N+](=O)[O-]`
A) 0.0164

###

Conditions: in methyl acetate, 323.15 K
recorded.endpoint: solubility (mole fraction)
No unit in the answer, please; the number alone is enough.

Q) // fetch solubility (mole fraction) given entry `CN1COCN(Cc2cnc(Cl)s2)C1=N[N+](=O)[O-]`
A) 0.0114

###

Conditions: in acetone, 298.15 K
recorded.endpoint: solubility (mole fraction)
No unit in the answer, please; the number alone is enough.

Q) // fetch solubility (mole fraction) given entry `CN1COCN(Cc2cnc(Cl)s2)C1=N[N+](=O)[O-]`
A) 0.0121

###

Details: in NMP, 293.15 K
recorded.endpoint: solubility (mole fraction)

Q) // fetch solubility (mole fraction) given entry `CN1COCN(Cc2cnc(Cl)s2)C1=N[N+](=O)[O-]`
A) 0.102

###

Conditions: in acetone, 283.15 K
recorded.endpoint: solubility (mole fraction)
No unit in the answer, please; the number alone is enough.

Q) // fetch solubility (mole fraction) given entry `CN1COCN(Cc2cnc(Cl)s2)C1=N[N+](=O)[O-]`
A) 0.00763

###

Settings: in DMF, 298.15 K
recorded.endpoint: solubility (mole fraction)
No unit in the answer, please; the number alone is enough.

Q) // fetch solubility (mole fraction) given entry `CN1COCN(Cc2cnc(Cl)s2)C1=N[N+](=O)[O-]`
A) 0.0892

###

Details: in acetone, 313.15 K
recorded.endpoint: solubility (mole fraction)
No unit in the answer, please; the number alone is enough.

Q) // fetch solubility (mole fraction) given entry `CN1COCN(Cc2cnc(Cl)s2)C1=N[N+](=O)[O-]`
A) 0.0194

###

Settings: in ethyl acetate, 283.15 K
recorded.endpoint: solubility (mole fraction)
No unit in the answer, please; the number alone is enough.

Q) // fetch solubility (mole fraction) given entry `CN1COCN(Cc2cnc(Cl)s2)C1=N[N+](=O)[O-]`
A) 0.00125

###

Conditions: in dichloromethane, 308.15 K
recorded.endpoint: solubility (mole fraction)
No unit in the answer, please; the number alone is enough.

Q) // fetch solubility (mole fraction) given entry `CN1COCN(Cc2cnc(Cl)s2)C1=N[N+](=O)[O-]`
A) 0.0277

###

Conditions: in DMF, 308.15 K
recorded.endpoint: solubility (mole fraction)

Q) // fetch solubility (mole fraction) given entry `CN1COCN(Cc2cnc(Cl)s2)C1=N[N+](=O)[O-]`
A) 0.11

###

Conditions: in DMF, 303.15 K
recorded.endpoint: solubility (mole fraction)

Q) // fetch solubility (mole fraction) given entry `CN1COCN(Cc2cnc(Cl)s2)C1=N[N+](=O)[O-]`
A) 0.0985

###

Conditions: in acetone, 278.15 K
recorded.endpoint: solubility (mole fraction)
No unit in the answer, please; the number alone is enough.

Q) // fetch solubility (mole fraction) given entry `CN1COCN(Cc2cnc(Cl)s2)C1=N[N+](=O)[O-]`
A) 0.00632

###

Settings: in DMF, 293.15 K
recorded.endpoint: solubility (mole fraction)
No unit in the answer, please; the number alone is enough.

Q) // fetch solubility (mole fraction) given entry `CN1COCN(Cc2cnc(Cl)s2)C1=N[N+](=O)[O-]`
A) 0.0816

###

Conditions: in DMF, 288.15 K
recorded.endpoint: solubility (mole fraction)

Q) // fetch solubility (mole fraction) given entry `CN1COCN(Cc2cnc(Cl)s2)C1=N[N+](=O)[O-]`
A) 0.0738

###

Settings: in dichloromethane, 283.15 K
recorded.endpoint: solubility (mole fraction)

Q) // fetch solubility (mole fraction) given entry `CN1COCN(Cc2cnc(Cl)s2)C1=N[N+](=O)[O-]`
A) 0.0152

###

Conditions: in DMF, 283.15 K
recorded.endpoint: solubility (mole fraction)
No unit in the answer, please; the number alone is enough.

Q) // fetch solubility (mole fraction) given entry `CN1COCN(Cc2cnc(Cl)s2)C1=N[N+](=O)[O-]`
A) 0.0658

###

Conditions: in NMP, 283.15 K
recorded.endpoint: solubility (mole fraction)
No unit in the answer, please; the number alone is enough.

Q) // fetch solubility (mole fraction) given entry `CN1COCN(Cc2cnc(Cl)s2)C1=N[N+](=O)[O-]`
A) 0.0882

###

Settings: in acetone, 288.15 K
recorded.endpoint: solubility (mole fraction)

Q) // fetch solubility (mole fraction) given entry `CN1COCN(Cc2cnc(Cl)s2)C1=N[N+](=O)[O-]`
A) 0.00888

###

Settings: in ethyl acetate, 313.15 K
recorded.endpoint: solubility (mole fraction)
No unit in the answer, please; the number alone is enough.

Q) // fetch solubility (mole fraction) given entry `CN1COCN(Cc2cnc(Cl)s2)C1=N[N+](=O)[O-]`
A) 0.00339

###

Details: in methyl acetate, 298.15 K
recorded.endpoint: solubility (mole fraction)

Q) // fetch solubility (mole fraction) given entry `CN1COCN(Cc2cnc(Cl)s2)C1=N[N+](=O)[O-]`
A) 0.00511

###

Details: in NMP, 288.15 K
recorded.endpoint: solubility (mole fraction)
No unit in the answer, please; the number alone is enough.

Q) // fetch solubility (mole fraction) given entry `CN1COCN(Cc2cnc(Cl)s2)C1=N[N+](=O)[O-]`
A) 0.0952

###

Conditions: in dichloromethane, 298.15 K
recorded.endpoint: solubility (mole fraction)
No unit in the answer, please; the number alone is enough.

Q) // fetch solubility (mole fraction) given entry `CN1COCN(Cc2cnc(Cl)s2)C1=N[N+](=O)[O-]`
A) 0.0222

###

Details: in dichloromethane, 288.15 K
recorded.endpoint: solubility (mole fraction)

Q) // fetch solubility (mole fraction) given entry `CN1COCN(Cc2cnc(Cl)s2)C1=N[N+](=O)[O-]`
A) 0.0174

###

Details: in DMF, 313.15 K
recorded.endpoint: solubility (mole fraction)
No unit in the answer, please; the number alone is enough.

Q) // fetch solubility (mole fraction) given entry `CN1COCN(Cc2cnc(Cl)s2)C1=N[N+](=O)[O-]`
A) 0.123

###

Conditions: in dichloromethane, 303.15 K
recorded.endpoint: solubility (mole fraction)
No unit in the answer, please; the number alone is enough.

Q) // fetch solubility (mole fraction) given entry `CN1COCN(Cc2cnc(Cl)s2)C1=N[N+](=O)[O-]`
A) 0.0249

###

Settings: in dichloromethane, 313.15 K
recorded.endpoint: solubility (mole fraction)
No unit in the answer, please; the number alone is enough.

Q) // fetch solubility (mole fraction) given entry `CN1COCN(Cc2cnc(Cl)s2)C1=N[N+](=O)[O-]`
A) 0.0306

###

Details: in NMP, 303.15 K
recorded.endpoint: solubility (mole fraction)

Q) // fetch solubility (mole fraction) given entry `CN1COCN(Cc2cnc(Cl)s2)C1=N[N+](=O)[O-]`
A) 0.119

###

Settings: in methyl acetate, 288.15 K
recorded.endpoint: solubility (mole fraction)

Q) // fetch solubility (mole fraction) given entry `CN1COCN(Cc2cnc(Cl)s2)C1=N[N+](=O)[O-]`
A) 0.00382

###

Details: in DMF, 318.15 K
recorded.endpoint: solubility (mole fraction)
No unit in the answer, please; the number alone is enough.

Q) // fetch solubility (mole fraction) given entry `CN1COCN(Cc2cnc(Cl)s2)C1=N[N+](=O)[O-]`
A) 0.137

###

Conditions: in ethyl acetate, 293.15 K
recorded.endpoint: solubility (mole fraction)
No unit in the answer, please; the number alone is enough.

Q) // fetch solubility (mole fraction) given entry `CN1COCN(Cc2cnc(Cl)s2)C1=N[N+](=O)[O-]`
A) 0.00183

###

Conditions: in methyl acetate, 283.15 K
recorded.endpoint: solubility (mole fraction)
No unit in the answer, please; the number alone is enough.

Q) // fetch solubility (mole fraction) given entry `CN1COCN(Cc2cnc(Cl)s2)C1=N[N+](=O)[O-]`
A) 0.00331

###

Details: in ethyl acetate, 303.15 K
recorded.endpoint: solubility (mole fraction)

Q) // fetch solubility (mole fraction) given entry `CN1COCN(Cc2cnc(Cl)s2)C1=N[N+](=O)[O-]`
A) 0.00257

###

Conditions: in NMP, 308.15 K
recorded.endpoint: solubility (mole fraction)
No unit in the answer, please; the number alone is enough.

Q) // fetch solubility (mole fraction) given entry `CN1COCN(Cc2cnc(Cl)s2)C1=N[N+](=O)[O-]`
A) 0.128

###

Conditions: in ethyl acetate, 308.15 K
recorded.endpoint: solubility (mole fraction)

Q) // fetch solubility (mole fraction) given entry `CN1COCN(Cc2cnc(Cl)s2)C1=N[N+](=O)[O-]`
A) 0.00295

###

Conditions: in ethyl acetate, 278.15 K
recorded.endpoint: solubility (mole fraction)

Q) // fetch solubility (mole fraction) given entry `CN1COCN(Cc2cnc(Cl)s2)C1=N[N+](=O)[O-]`
A) 0.00099
